Every entry's value here was drawn from patent US20130266566A1.

Molecular target: T1, mouse PAI-1 (mouse, UniProt P22777 24-401)
T1 sequence: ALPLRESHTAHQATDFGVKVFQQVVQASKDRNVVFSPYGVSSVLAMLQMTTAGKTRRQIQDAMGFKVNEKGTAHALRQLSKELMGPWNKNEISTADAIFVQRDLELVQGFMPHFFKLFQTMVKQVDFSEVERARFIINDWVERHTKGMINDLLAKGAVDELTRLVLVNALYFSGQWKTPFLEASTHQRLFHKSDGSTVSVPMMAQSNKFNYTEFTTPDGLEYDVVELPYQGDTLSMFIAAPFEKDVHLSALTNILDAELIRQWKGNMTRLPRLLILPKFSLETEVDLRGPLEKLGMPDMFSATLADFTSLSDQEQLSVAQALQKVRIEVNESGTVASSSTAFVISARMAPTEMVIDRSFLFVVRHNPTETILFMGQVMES
Assay: cell-based or functional assay
measure: Chromogenic (IC50 in nM) mouse
Give bare numbers, in nM.

// solved cases for Chromogenic (IC50 in nM) mouse follow
Antibody 13 scFv (scFv) QVQLQQSGAEVKKPGSSVKVSCKASGGTFSSYAISWVRQAPGQGLEWMGGIIPTFGTANYAQKFQGRVTITADESTSTAYMELSDLRSEDTAVYYCAREKRQWLEGHFDYWGRGTPVTVSSDIQMTQSPSFLSASIGDRVTITCRASEGIYHSLAWYQQKPGKAPKLLIYRASSLASGAPSRFSGSGSGTDFTLTISSLQPDDFATYYCQQYSNYPLTFGGGTKLEIK	247
Antibody 11 scFv (scFv) QVQLQQSGAEVKKPGSSVKVSCKASGGTFSSYAISWMRQAPGQGLEWMGGIIPIFGTANYAQKFQGRVTITADESTSTAYMELSGLRSEDTAVYYCAREKRQWLEGHFDYWGRGTPVTVSSDIQMIQSPSFLSASTGDRVTITCQASEGIYHELAWYQQKPGKAPKLLIYRASSLASGAPSRFSGSGSGTDFTLTISSLQPDDFATYYCQQYSNYPLTFGGGTKLEIK	33.6

Here's the next entry for you.
Q) Need Chromogenic (IC50 in nM) mouse, item Antibody 07 scFv (scFv) QVQLQQSGAEVKKPGSSVKVSCKASGGTFSSYAISWVRQAPGQGLEWVGGIIPTFGTANYAQKFQGRVTITADESTSTAYMELSGLRSEDTAVYYCAREKRQWLEGHFDYWGRGTPVTVSSDIQMAQSPSFLSASIGDRVTITCRASEGIYHELAWYQQKPGKAPKLLIYRASSLASGAPSRFSGSGSGTDFTLTISSLQPDDFATYYCQQYSNYPLTFGGGTKLEIK
A) 143
